Where these numbers come from: patent US20240385182A1

assay: Photophysical characterization of probes and uncaged forms (relative fluorescence quantum yield, extinction coefficient, brightness); type: physicochemical
Each item that follows carries a reported Emmax.
measureName: Emmax (nm)

INSERT INTO assay_data (molecule, measurename, numericresult) VALUES
  ('O=C(Oc1ccc(CCC(=O)C(F)(F)F)cc1)Oc1ccc2cc(-n3cc(COCCOCCOCCO)nn3)c(=O)oc2c1', 'Emmax', 472.0),
  ('CCCCCCCCCCCCCCCC(=O)OCC(COP(=O)([O-])OCC[N+](C)(C)Cc1cn(-c2cc3ccc(OC(=O)Oc4ccc(CCC(=O)C(F)(F)F)cc4)cc3oc2=O)nn1)OC(=O)CCCCCCCCCCCCCCC (racemic)', 'Emmax', 471.2),
  ('CC1(C)OB(c2ccc(COC(=O)Oc3ccc4c(c3)Oc3cc(OC(=O)OCc5ccc(B6OC(C)(C)C(C)(C)O6)cc5)ccc3C43OC(=O)c4cc(-n5cc(COCCOCCOCCO)nn5)ccc43)cc2)OC1(C)C', 'Emmax', 526.0),
  ('CCCCCCCCCCCCCCCC(=O)OCC(COP(=O)([O-])OCC[N+](C)(C)Cc1cn(-c2ccc3c(c2)C(=O)OC32c3ccc(O)cc3Oc3cc(O)ccc32)nn1)OC(=O)CCCCCCCCCCCCCCC (racemic)', 'Emmax', 523.6),
  ('O=c1oc2cc(O)ccc2cc1-n1cc(COCCOCCOCCO)nn1', 'Emmax', 471.4),
  ('[N-]=[N+]=Nc1ccc(COc2ccc3cc(-n4cc(COCCOCCOCCO)nn4)c(=O)oc3c2)cc1', 'Emmax', 475.5);
